Target: Alpha glucosidase (Homo sapiens) (UniProt O43451+P10253+P14410+Q2M2H8)
Experiment: Inhibition of human Alpha-glucosidase using p-nitrophenyl glycoside as substrate assessed as p-nitrophenol release at 1000 uM by spectrometric analysis relative to control
Assay type: protein assay
quantity-measured: inhibition (%)
Give bare numbers, in %.

{"columns": ["smiles-code", "target-of-assay", "unit-name", "inhibition"],
 "data": [
  ["O[C@@H]1[C@@H]2[C@@H](O)C[C@@H](F)CN2C[C@@H]1O", "Alpha glucosidase (Homo sapiens) (UniProt O43451+P10253+P14410+Q2M2H8)", "%", 15.6],
  ["O[C@H]1[C@H]2[C@@H](O)CCCN2C[C@H]1O", "Alpha glucosidase (Homo sapiens) (UniProt O43451+P10253+P14410+Q2M2H8)", "%", 0],
  ["O[C@@H]1[C@@H]2[C@H](O)C[C@H](F)CN2C[C@@H]1O", "Alpha glucosidase (Homo sapiens) (UniProt O43451+P10253+P14410+Q2M2H8)", "%", 37.6]
]}

Record inhibition for all entries; do not skip any.
1. O[C@@H]1[C@@H]2[C@@H](O)CCCN2C[C@@H]1O
2. O[C@@H]1[C@@H]2[C@@H](O)C[C@H](F)CN2C[C@@H]1O
3. O[C@H]1[C@H]2[C@H](O)C[C@H](F)CN2C[C@H]1O
4. O[C@@H]1[C@@H]2[C@H](O)C[C@@H](F)CN2C[C@@H]1O
5. O[C@@H]1[C@@H]2[C@H](O)CC(F)(F)CN2C[C@@H]1O

Solution:
[3.4, 5.1, 6.6, 0, 2.2]

Record inhibition for all entries; do not skip any.
1. O[C@H]1[C@H]2[C@@H](O)C[C@@H](F)CN2C[C@H]1O
2. O[C@H]1[C@H]2[C@H](O)CCCN2C[C@H]1O
3. O[C@@H]1[C@@H]2[C@@H](O)CC(F)(F)CN2C[C@@H]1O

Solution:
1. 5.3
2. 0
3. 0

----------
Tested on: Oryza sativa
Experiment: Inhibition of rice Alpha-glucosidase using p-nitrophenyl glycoside as substrate assessed as p-nitrophenol release at 1000 uM by spectrometric analysis relative to control
quantity-measured: inhibition (%)
Give bare numbers, in %.

{"columns": ["molecule", "target-of-assay", "value-measured"],
 "data": [
  ["O[C@H]1[C@H]2[C@@H](O)C[C@@H](F)CN2C[C@H]1O", "Oryza sativa", 14],
  ["O[C@@H]1[C@@H]2[C@@H](O)C[C@H](F)CN2C[C@@H]1O", "Oryza sativa", 0],
  ["O[C@@H]1[C@@H]2[C@H](O)CC(F)(F)CN2C[C@@H]1O", "Oryza sativa", 0],
  ["O[C@@H]1[C@@H]2[C@H](O)CCCN2C[C@@H]1O", "Oryza sativa", 0]
]}

Record inhibition for all entries; do not skip any.
1. O[C@H]1[C@H]2[C@@H](O)CC(F)(F)CN2C[C@H]1O
2. O[C@@H]1[C@@H]2[C@@H](O)CC(F)(F)CN2C[C@@H]1O

Solution:
[2.5, 0]

Record inhibition for all entries; do not skip any.
1. O[C@@H]1[C@@H]2[C@H](O)C[C@H](F)CN2C[C@@H]1O
2. O[C@H]1[C@H]2[C@H](O)CCCN2C[C@H]1O [TRIDOLGOSIR]
3. O[C@@H]1[C@@H]2[C@H](O)C[C@@H](F)CN2C[C@@H]1O
4. O[C@@H]1[C@@H]2[C@@H](O)C[C@@H](F)CN2C[C@@H]1O
5. O[C@@H]1[C@@H]2[C@@H](O)CCCN2C[C@@H]1O

Solution:
1. 0
2. 31.2
3. 23.5
4. 27.3
5. 0

Record inhibition for all entries; do not skip any.
1. O[C@H]1[C@H]2[C@@H](O)C[C@H](F)CN2C[C@H]1O
2. O[C@H]1[C@H]2[C@@H](O)CCCN2C[C@H]1O

Solution:
1. 15.9
2. 0
